System: Plasmodium falciparum
Assay Explanation: GSK_TCMDC: Inhibition of Plasmodium falciparum 3D7 in whole erythrocytes, using parasite LDH activity as an index of growth.
Format: functional, organism-based
Study Conditions: Plasmodium falciparum, 3D7
Could you please report measured log10 XC50 for the items listed next?
Log scale reminder: XC50 in nM, then log10 taken.

# input Fill blank: measured log10 XC50 of the compound CN(C)c1ccc(/C=C2\S/C(=N\c3ccccc3)N(c3ccccc3)C2=O)cc1[N+](=O)[O-] is ____.
# output 2.89

# input Fill blank: measured log10 XC50 of the compound CCC1(CC)NC(N)=NC(=N)N1OCc1ccc(Cl)c(Cl)c1 is ____.
# output 1.77

# input Fill blank: measured log10 XC50 of the compound CN=C(NC)c1cccc(NC(=O)C=Cc2ccc(C=CC(=O)Nc3cccc(C(=NC)NC)c3)cc2)c1 is ____.
# output 2.21

# input Fill blank: measured log10 XC50 of the compound COc1ccc(Cn2c(Nc3cccc(C(F)(F)F)c3)nc3ccc(C(=O)NCCN4CCCC4)cc32)cc1Cl is ____.
# output 2.88

# input Fill blank: measured log10 XC50 of the compound O=C(/C=C/c1ccc(Cl)cc1)NCCCCCN1CCC(C(=O)Nc2ccc(Cl)c(Cl)c2)CC1 is ____.
# output 2.88

# input Fill blank: measured log10 XC50 of the compound O=C(Nc1cccc(-c2cccc(-c3nc4cc(C(F)(F)F)ccc4[nH]3)c2)c1)c1ccncc1 is ____.
# output 2.30

# input Fill blank: measured log10 XC50 of the compound CC(=O)Nc1ccc(OCCCN(Cc2ccccc2C(F)(F)F)c2ccc(C(F)(F)F)c(C#N)c2)c(Cl)c1 is ____.
# output 3.16

# input Fill blank: measured log10 XC50 of the compound CN1CCN(CCCCNc2c3ccccc3nc3ccccc23)CC1 is ____.
# output 2.85

# input Fill blank: measured log10 XC50 of the compound Cc1csc(-c2nc(NCc3cccnc3)ncc2-c2ccsc2)n1 is ____.
# output 3.08
